Origin of measurements: patent US10105357B2

test system: TSGH-8301 (Urinary Bladder Carcinoma); assay: Cell viability analysis, bladder cancer TSGH-8301; format: cell-based, human; settings: Homo sapiens, 72 h, read-out: The results of antibiotic drug inhibiting cancer cell lines (cell viability analysis), TSGH-8301, TSGH-8301; repeated experiment
Structures can show the parent of a compound that is named as a salt.
We begin with a simple list: items and their reported viability at 10 µM.
Give your result in % as a bare value.

Consider the molecule CN(C)CCCN1c2ccccc2CCc2ccc(Cl)cc21 [Clomipramine hydrochloride (Anafranil), Clomipramine hydrochloride] tested on TSGH-8301 (Urinary Bladder Carcinoma); state its viability at 10 µM.
139

Consider the molecule CC(NC(C)(C)C)C(=O)c1cccc(Cl)c1 (stereo not shown) [Amfebutamone (Bupropion), Amfebutamone] tested on TSGH-8301 (Urinary Bladder Carcinoma); state its viability at 10 µM.
116

Consider the molecule Clc1ccc(C(Cn2ccnc2)OCc2ccsc2Cl)c(Cl)c1 (stereo not shown) [Tioconazole] tested on TSGH-8301 (Urinary Bladder Carcinoma); state its viability at 10 µM.
105

Consider the molecule Clc1ccc(COC(Cn2ccnc2)c2ccc(Cl)cc2Cl)c(Cl)c1 (stereo not shown) [Miconazole nitrate] tested on TSGH-8301 (Urinary Bladder Carcinoma); state its viability at 10 µM.
102

Consider the molecule O=c1n(CCCN2CCN(c3cccc(Cl)c3)CC2)nc2ccccn12 [Trazodone hydrochloride (Desyrel), Trazodone hydrochloride] tested on TSGH-8301 (Urinary Bladder Carcinoma); state its viability at 10 µM.
134

Consider the molecule CC1(C)S[C@@H]2[C@H](NC(=O)Cc3ccccc3)C(=O)N2[C@H]1C(=O)O [Benzylpenicillin sodium] tested on TSGH-8301 (Urinary Bladder Carcinoma); state its viability at 10 µM.
131
